Cited source: paper PMC12396409

Test system: P. falciparum 3D7 parasites
Assay: P. falciparum growth inhibition assay, 2-cycle (120 h treatment), delayed-death screen and dose-response
Assay type: cell-based, Plasmodium falciparum
Conditions: Plasmodium falciparum, 3D7; library screen at 2 μg/mL, 120 h, % growth, replicate 2; read-out: Pf_120h_%Growth_Rep2
Exercise: for every item that follows, state its recorded activity at 2 µg/mL.
The reply should be a number in %, with the unit left off.

input: Item COc1cc(C)c(C(=O)Oc2cc(C)c(C(=O)O)c(O)c2C)c(OC)c1C : provide activity at 2 µg/mL
output: 81.2

input: Item C=C1CCO[C@]2([C@@H](O)[C@@](C)(O)CO)NC(=O)[C@@]1(O)NC2=O : provide activity at 2 µg/mL
output: 86.7

input: Item O=C(N[C@H](COC(=O)[C@H](Cc1ccccc1)NC(=O)c1ccccc1)Cc1ccccc1)c1ccccc1 [Asperphenamate] : provide activity at 2 µg/mL
output: 85.4

input: Item COC(=O)c1cc(O)cc(OC)c1Oc1cc(C)cc(O)c1C(=O)O : provide activity at 2 µg/mL
output: 103

input: Item CC[C@H](C)[C@H]1O[C@]2(C=C[C@@H]1C)C[C@@H]1C[C@@H](C/C=C(\C)[C@@H](O[C@H]3C[C@H](OC)[C@@H](O[C@H]4C[C@H](OC)[C@@H](O)[C@H](C)O4)[C@H](C)O3)[C@@H](C)/C=C/C=C3\CO[C@@H]4[C@H](O)C(C)=C[C@@H](C(=O)O1)[C@]34O)O2 : provide activity at 2 µg/mL
output: 5.47
